Listing of recorded melting point by entry.

Consider the following illustrative entries.
INSERT INTO measurements (compound, reported_result) VALUES
  ('CC(C)Oc1cc(C(=O)O)n(Cc2ncc(C(F)(F)F)cc2Cl)n1', '124 to 125 °C'),
  ('CCCc1noc(-c2ccccc2)c1-c1ccc(S(N)(=O)=O)cc1', '167 °C'),
  ('CCc1ccc(NC(=O)c2cc(C(C)(C)C)ccc2S)cc1', '150 to 151 °C');

For the compound CC1=C(C(=O)OCCO)C(c2cccc([N+](=O)[O-])c2)C2=C(CCCS2(=O)=O)N1 (stereo not given) , what melting point is on record?
233 to 235 °C

Now the compound CN(CCc1ccccc1)C(=O)Cc1ccc(OCc2ccccc2)c(/C=C/C(=O)O)c1
48 to 51 °C

----------
PROPERTY_NAME: melting point

Consider the following illustrative entries.
INSERT INTO results (compound, reported_result) VALUES
  ('CCOC(=O)C(C#N)(Cc1ccc(OC)c(OC)c1)C(OCC)OCC (stereo not given)', '62 to 65 °C'),
  ('O=C(O)CN1C[C@@H](Cc2c[nH]c3ccccc23)N(C(=O)c2cc(C(F)(F)F)cc(C(F)(F)F)c2)CC1=O', '> 220 °C'),
  ('N#Cc1cc(-c2ccc(F)cc2)ccn1', '194 to 195 °C'),
  ('CN1CC(=O)N(C)C1=NC(=O)Nc1cccc(Cl)c1', '134 to 137 °C'),
  ('CCOC(=O)c1nn(-c2cccc(C(F)(F)F)c2)c2c1CCCC2', '77 to 78 °C');

For the compound COC(=O)c1ccc(OC)cc1I , what melting point is on record?
185 °C

Now the compound COC(=O)c1cc(OCc2ccccc2)ccc1O
108 to 112 °C

Now the compound O=C1SC(Cc2ccc(OCCc3c[nH]c4ccccc34)cc2)C(=O)N1C(c1ccccc1)(c1ccccc1)c1ccccc1 (stereo not given)
81 to 82.5 °C

Now the compound O=C(CSc1nc2ccccc2s1)c1ccc2[nH]c3ncc(Cl)cc3c2c1
241 to 242 °C

Now the compound CCN1C[C@@H](O)[C@H](Sc2ccccc2Cl)C1 (relative stereo)
90.5 to 92.5 °C

Now the compound CC(=O)OC1CSC(Oc2cncc(Br)c2)C(OC(C)=O)C1OC(C)=O (stereo not given)
174 °C

----------
Listing of recorded melting point by entry.

INSERT INTO results (compound, reported_result) VALUES
  ('O=C(c1ccc(F)cc1)N(CCCCn1ccnc1)C1=Nc2cccc3cccc1c23', '109 to 110 °C'),
  ('c1ccc(NCCCCCCCNc2ccccc2)cc1', '52 to 54 °C'),
  ('CCOC(=O)C=C(C)Nc1ccccc1N', '73 to 81 °C');

For the compound N#Cc1cc(-c2ccc(Cl)cc2)cnc1Cl , what melting point is on record?
185 to 187 °C

Now the compound CC(=O)C1=NN(c2ccc(C(=O)O)cc2C)C(=O)C1
> 250 °C

Now the compound N#Cc1nn(-c2c(Cl)cc(C(F)(F)F)cc2Cl)cc1C1(C(F)(F)C(F)(F)C(F)(F)F)CC1
95 to 96 °C

Now the compound COC(=O)CC[C@@H](Cc1cn(Cc2ccccc2)c2ccccc12)NC(=O)CCCCCCc1ccccc1
107 to 109 °C

Now the compound CCOC(=O)CCNC(=O)CCCCNC(=O)OC(C)(C)C
28 °C

Now the compound CCC(COC)NC(=O)C(C)(C)c1ccc(-c2ccccc2)c(F)c1 (configuration not stated)
81 to 82 °C

Now the compound O=C(Cn1c(-c2ccc(Cl)cc2)nc2ncccc21)c1ccccc1
262 to 263 °C

Now the compound Nc1nc(Br)cn2c(Br)cnc12
246 °C

Now the compound CCCCOCCOc1ccc(-c2ccc3c(c2)C=C(C(=O)Nc2ccc(C(O)c4ccccn4)c(OC)c2)CCN3C(=O)C(F)(F)F)cc1 (configuration not stated)
123 to 125 °C

Now the compound ON=Cc1cc(-c2ccc(O)cc2)c2occc2c1
192 to 194 °C

Now the compound COc1cc(C(C)C)c2oc3ccccc3c2c1C(=O)Nc1c(Cl)cncc1Cl
209 to 211 °C

Now the compound O=c1[nH]c(-c2ccc(CCCl)cc2)cs1
226 to 229 °C

Now the compound CCC1(O)CC(=O)OCc2c1cc1n(c2=O)Cc2c-1nc1cc(F)c(F)cc1c2-c1ccccc1 (configuration not stated)
> 250 °C

Now the compound CS(=O)(=O)c1ccc(-c2cnn(-c3ccc(F)cc3)c(=O)c2Cc2ccc(F)cc2)cc1
175 to 177 °C

Now the compound O=C(O)c1cc2cc(F)c(Cl)cc2nc1Cl
230 °C

Now the compound C=C(c1cc(OC)c(O)c2c(Cc3ccccc3)cccc12)C(C)(C)C(=O)O
162 °C

Now the compound CN(C)S(=O)(=O)c1cc(-c2csc(=Nc3ccc(Cl)cc3)n2C)ccc1Cl
184 °C

----------
PROPERTY_NAME: melting point

Consider the following illustrative entries.
INSERT INTO assay_data (molecule, reported_result) VALUES
  ('CN1C(=O)C2(COc3cc4c(cc32)OCCO4)c2c(C(=O)Oc3ccccc3)cccc21 (stereo not drawn)', '184 to 186 °C'),
  ('Nc1ccc(S(=O)(=O)c2cc(-c3cccc(Cl)c3)nc(N3CCCC3)c2)cc1', '260 to 261 °C');

For the molecule Cn1cc(Cl)c(-n2ccnc2S(N)(=O)=O)n1 , what melting point is on record?
208 to 210 °C

Now the molecule O=C(NCCCCC(NC(=O)OCc1ccccc1)C(=O)NC1OC(C(=O)O)CC1O)OCc1ccccc1 (stereo not drawn)
86 to 100 °C

Now the molecule N#CC=C(c1ccc(-c2ccccc2)cc1)c1ccc(-c2ccccc2)cc1
154 °C

Now the molecule FC(F)(F)Oc1ccc(C=CC(C=Cc2ccc(OC(F)(F)F)cc2)=NNC2=NCCCCN2)cc1
184 to 186 °C

Now the molecule COC(=O)c1ccc(Cc2cccc3ccc(C=O)cc23)c(OC)c1
103 to 104 °C

Now the molecule C=CCOC(=O)C(Cc1ccc2ccc3cccc4ccc1c2c34)(Cc1ccc2ccc3cccc4ccc1c2c34)C(=O)OCC=C
178 to 180 °C

----------
Listing of recorded melting point by entry.

INSERT INTO measurements (compound, reported_result) VALUES
  ('CC(C)(n1cncn1)C(O)(Cn1cncn1)c1ccc(Cl)cc1 (centres undefined)', '114 °C'),
  ('CCS(=O)c1nc(-c2ccccc2)c(-c2ccccc2)o1 (centres undefined)', '133 to 134 °C');

For the compound CCCCCCCCCCOc1ccc(-c2ccc(C(=O)O)cc2)cc1 , what melting point is on record?
246 to 250 °C

Now the compound Cn1nc(NC(=O)Cc2ccccc2)c(-c2ccncc2)c1-c1ccc(F)cc1
158 to 160 °C

Now the compound CC(=O)NC[C@H]1CN(c2ccc(N3CCN(C(=S)CN)CC3)c(F)c2)C(=O)O1
202 to 204 °C

Now the compound Cn1ccnc1Sc1ccc(Nc2c(C#N)cnc3cc(N4CCC(N5CCCC5)CC4)ccc23)cc1Cl
125 to 130 °C

----------
PROPERTY_NAME: melting point

Consider the following illustrative entries.
INSERT INTO results (compound, reported_result) VALUES
  ('CC(C(=O)O)c1ccc2c(c1)C(=O)Cc1cc(O)ccc1S2 (stereo unspecified)', '216 to 217 °C'),
  ('C=C(C)c1c2c(c(C)c(C)c1N1CCN(c3ccc(OC)cc3)CC1)OC(C)(C)C2', '174 to 175 °C'),
  ('NS(=O)(=O)OCCOS(N)(=O)=O', '98.5 to 101 °C');

Please look at the following compound next.
For the compound Nc1c(I)c(C(=O)NCC(O)CO)c(I)c(C(=O)NCC(O)CO)c1I (single isomer, unassigned; (-)) , what melting point is on record?
203 °C

----------
Listing of recorded melting point by entry.

Consider the following illustrative entries.
INSERT INTO results (input_smiles, property_name, reported_result) VALUES
  ('O=S(=O)(c1scc(Br)c1Br)n1nnc2c(Br)cc(C(F)(F)F)cc21', 'melting point', '192 to 195 °C'),
  ('COc1ccc(C(=O)Nc2ccccc2)cc1Nc1cccc(Cl)c1', 'melting point', '168 to 170 °C'),
  ('C=CCCOc1ccc(CCCOC(=O)NS(=O)(=O)NCCOC(C)C)c(Oc2ncc(C(F)(F)F)cc2Cl)c1', 'melting point', '111 to 113 °C');

For the compound NC(=O)c1c2ccsc2nc2c1c1ccccc1n2Cc1ccccc1 , what melting point is on record?
242 to 245 °C

Now the compound Nc1ccc(C(=O)O)c2ccccc12
169 to 171 °C
